test.summary: Cell viability assay (PrestoBlue resazurin)
Type: cell-based, Mus musculus (mouse)
experimental.parameters: mouse; 30 μM; 72 h; relative to control; read-out: % Cell Viability
The reader will find reported viability at 72 h, 30 µM values listed item by item below.
Express the result in % but write the number alone.

{"columns": ["smiles.entry", "observed.measurement"],
 "data": [
  ["COc1cc(O)c2c(=O)c(-c3ccc(O)cc3O)coc2c1", 107]
]}

Kindly review the next compound as well.
Quick check: viability at 72 h, 30 µM of O=c1c(-c2ccc(O)cc2)coc2cc(O)cc(O)c12 ?
93.8

---

system.under.test: murine tyrosinase (Mus musculus, UniProt P11344)
Construct: The cells were lysed by vortex and incubated at 4 °C for 1 h to solubilize the tyrosinase enzyme; endogenous in cells; host or cells: B16-F10 melanoma cells (Triton X-100 lysate, dialyzed)
Sequence (P11344 19-533): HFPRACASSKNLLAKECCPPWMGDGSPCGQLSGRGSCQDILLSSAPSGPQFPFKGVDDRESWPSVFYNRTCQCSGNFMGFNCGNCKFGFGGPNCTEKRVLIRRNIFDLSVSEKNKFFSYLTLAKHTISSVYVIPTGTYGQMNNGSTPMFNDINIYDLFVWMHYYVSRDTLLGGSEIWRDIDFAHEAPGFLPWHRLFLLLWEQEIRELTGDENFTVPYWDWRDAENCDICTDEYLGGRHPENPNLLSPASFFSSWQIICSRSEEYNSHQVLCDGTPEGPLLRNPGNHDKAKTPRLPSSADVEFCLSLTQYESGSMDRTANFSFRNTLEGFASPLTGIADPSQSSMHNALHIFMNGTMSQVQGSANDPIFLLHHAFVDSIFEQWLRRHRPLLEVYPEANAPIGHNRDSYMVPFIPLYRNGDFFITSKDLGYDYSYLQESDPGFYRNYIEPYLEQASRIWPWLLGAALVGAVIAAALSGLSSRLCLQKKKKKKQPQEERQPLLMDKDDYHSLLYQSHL
test.summary: Murine tyrosinase inhibitory assay (o-diphenolase activity, crude enzyme from B16-F10 melanoma cells);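 also: crude tyrosinase taken from lysed, dialyzed B16-F10 cell extract, with the inhibition reaction incubated for 2 h at 37 °C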
Format: biochemical
experimental.parameters: 200 μM; L-DOPA substrate; read-out: Murine Tyrosinase Inhibition, % (at 200 μM)
measurement.label: inhibition at 200 µM (%)
Express the result in % but write the number alone.

{"columns": ["compound", "system.under.test", "measurement.label", "unit.label", "observed.measurement"],
 "data": [
  ["O=c1c(-c2ccc(O)cc2)coc2cc(O)cc(O)c12 [Compound 4, Genistein]", "murine tyrosinase (Mus musculus, UniProt P11344)", "inhibition at 200 µM", "%", 9.9]
]}

// lookup inhibition at 200 µM | system=murine tyrosinase (Mus musculus, UniProt P11344) | key= COc1ccc([C@@H]2COc3cc(O)ccc3C2)c(OC)c1O [Compound 20, (3R)(+)-Mucronulatol]
12.8

// lookup inhibition at 200 µM | system=murine tyrosinase (Mus musculus, UniProt P11344) | key= O=C1C[C@@H](c2ccc(O)cc2)Oc2cc(O)ccc21 [Compound 24, (2S)-Liquiritigenin]
13.2

// lookup inhibition at 200 µM | system=murine tyrosinase (Mus musculus, UniProt P11344) | key= COc1ccc(C2COc3c(ccc(O)c3OC)C2)c(O)c1O [Compound 21, (3R,S)-3′-Hydroxy-8-methoxy vestitol]
11.4

// lookup inhibition at 200 µM | system=murine tyrosinase (Mus musculus, UniProt P11344) | key= COc1cc(O)c(-c2coc3cc(O)cc(O)c3c2=O)cc1O [Compound 5, Khrinone B]
10.1

// lookup inhibition at 200 µM | system=murine tyrosinase (Mus musculus, UniProt P11344) | key= COc1ccc(C2COc3cc(O)ccc3C2=O)c(O)c1OC (stereo not drawn) [Compound 13, Dalparvin B]
9.8

---

test.summary: Cell viability assay (PrestoBlue resazurin)
Assay type: cell-based, Mus musculus (mouse)
experimental.parameters: mouse, % Cell Viability
measurement.label: viability at 72 h, 30 µM (%)
Express the result in % but write the number alone.

Quick check: viability at 72 h, 30 µM of Oc1cc(O)cc(/C=C/c2ccc(O)cc2O)c1 [Oxyresveratrol, reference compound] ?
118

---

System: B16-F10 melanoma cells
test.summary: Cell viability assay (PrestoBlue resazurin);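 also: mouse B16-F10 melanoma cells exposed to test samples for 72 h, with viability read as fluorescence of resorufin formed when living cells reduce PrestoBlue resazurin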
Assay type: cell-based, Mus musculus (mouse)
experimental.parameters: 30 μM; 72 h; relative to control
measurement.label: % Cell Viability (%)
Express the result in % but write the number alone.

Worked cases, answers included:
{"columns": ["compound", "% Cell Viability [%]"],
 "data": [
  ["COc1ccc(C2COc3c(ccc(O)c3OC)C2)c(O)c1O [Compound 21, (3R,S)-3′-Hydroxy-8-methoxy vestitol]", 62.4],
  ["COc1ccc([C@H]2COc3cc(O)ccc3C2=O)c(OC)c1 [Compound 14, (3S)-Sativanone]", 64.3]
]}

Quick check: % Cell Viability of COc1cc2c(cc1O)[C@@H]1COc3cc(O)ccc3[C@@H]1O2 [Compound 27] ?
14.5

Quick check: % Cell Viability of COc1cc(O)c(-c2coc3cc(O)cc(O)c3c2=O)cc1O [Compound 5, Khrinone B] ?
62.3
